Origin of values: patent US9861703B2

# measured-target: Aminopeptidase N (Sus scrofa, UniProt P15145)
# Construct: purchased Sigma
# Sequence (P15145 1-963): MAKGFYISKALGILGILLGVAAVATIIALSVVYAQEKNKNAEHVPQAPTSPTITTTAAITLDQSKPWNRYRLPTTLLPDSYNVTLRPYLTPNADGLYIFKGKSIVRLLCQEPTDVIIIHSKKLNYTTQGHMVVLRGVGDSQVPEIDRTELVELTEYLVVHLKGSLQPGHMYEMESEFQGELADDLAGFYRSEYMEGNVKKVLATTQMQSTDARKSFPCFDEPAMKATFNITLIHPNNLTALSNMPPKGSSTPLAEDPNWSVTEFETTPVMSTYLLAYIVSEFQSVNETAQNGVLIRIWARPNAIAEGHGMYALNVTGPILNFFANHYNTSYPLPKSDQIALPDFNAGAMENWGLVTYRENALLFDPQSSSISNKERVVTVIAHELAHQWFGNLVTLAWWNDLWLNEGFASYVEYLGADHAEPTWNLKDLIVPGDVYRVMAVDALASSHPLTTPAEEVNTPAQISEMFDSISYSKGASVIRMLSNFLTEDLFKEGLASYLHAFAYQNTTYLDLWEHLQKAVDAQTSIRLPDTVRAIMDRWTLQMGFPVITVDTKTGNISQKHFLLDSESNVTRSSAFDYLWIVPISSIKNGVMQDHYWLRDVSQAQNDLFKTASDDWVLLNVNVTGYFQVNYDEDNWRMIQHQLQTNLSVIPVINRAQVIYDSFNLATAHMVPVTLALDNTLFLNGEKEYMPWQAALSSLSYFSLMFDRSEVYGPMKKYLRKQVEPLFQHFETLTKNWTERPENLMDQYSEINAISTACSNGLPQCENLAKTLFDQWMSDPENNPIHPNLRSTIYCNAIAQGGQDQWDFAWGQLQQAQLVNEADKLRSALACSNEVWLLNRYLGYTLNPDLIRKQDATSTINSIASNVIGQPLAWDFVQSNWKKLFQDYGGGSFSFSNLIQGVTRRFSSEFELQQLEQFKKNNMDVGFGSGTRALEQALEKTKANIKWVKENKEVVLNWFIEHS
# test-method-notes: Inhibition activity against enzyme in vitro (aminopeptidase N, L-Leu-p-nitroanilide substrate)
# Format: biochemical
# applied-conditions: 37° C., 0.5 h, absorbance 405 nm, PBS pH 7.2; read-out: IC50(μM) APN
Counter-ions that a name gives are not always drawn.
measured-quantity: IC50
State the result as a value with its unit after it.

Please review the entries below; each comes with its answer.
compound	IC50
CC(C)C[C@H](NC(=O)[C@@H](O)[C@H](N)Cc1ccccc1)C(=O)OCn1cc(F)c(=O)[nH]c1=O.Cl [BC-01, hydrochloride]	6.98 µM
CC(C)C[C@H](NC(=O)[C@@H](O)[C@H](N)Cc1ccccc1)C(=O)NCCCCCC(=O)OCn1cc(F)c(=O)[nH]c1=O [BC-06, hydrochloride]	4.66 µM
CC(C)C[C@H](NC(=O)[C@@H](O)[C@H](N)Cc1ccccc1)C(=O)N1CCC[C@H]1C(=O)OCn1cc(F)c(=O)[nH]c1=O [BC-07, hydrochloride]	0.15 µM
CC(C)C[C@H](NC(=O)[C@@H](O)[C@H](N)Cc1ccccc1)C(=O)NCCC(=O)OCn1cc(F)c(=O)[nH]c1=O [BC-04, hydrochloride]	1.3 µM
CC(C)C[C@H](NC(=O)[C@@H](O)[C@H](N)Cc1ccccc1)C(=O)NCC(=O)OCn1cc(F)c(=O)[nH]c1=O.Cl [BC-02, hydrochloride]	0.38 µM
CC(C)C[C@H](NC(=O)[C@@H](O)[C@H](N)Cc1ccccc1)C(=O)NCCCC(=O)OCn1cc(F)c(=O)[nH]c1=O [BC-05, hydrochloride]	1.39 µM

Report IC50 for CC(C)C[C@H](NC(=O)[C@@H](O)[C@H](N)Cc1ccccc1)C(=O)ONC(N)=O [Compound 22, hydrochloride] please.
2.92 µM

Request the reported IC50 associated with CC(C)C[C@H](NC(=O)[C@@H](O)[C@H](N)Cc1ccccc1)C(=O)N[C@@H](C)C(=O)OCn1cc(F)c(=O)[nH]c1=O.Cl [BC-03, hydrochloride]
0.36 µM
